target: ARHGEF12, Q9NZN5-2; experiment: holdup assay; design: key: below the threshold = too weak to quantify, mostly under pKd 3.1 to 4; conditions: plain residues with an end cap or a label only (N-terminal biotin on a linker: ado-ado)
Sequence (Q9NZN5 other isoform, or with tags, fused parts or gaps): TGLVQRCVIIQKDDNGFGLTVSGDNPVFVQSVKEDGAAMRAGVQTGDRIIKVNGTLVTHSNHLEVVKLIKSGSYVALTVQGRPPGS
measured parameter: pKd
# respond with the number and nothing more

ARSAAASNYV [CLDN4, O14493] ... 3.73

Problem: What measured pKd goes with LESTTVGTSV [KARS1, Q15046] ?
Result: 4.03

Problem: What measured pKd goes with NVYGIESVKI [GRIA2, P42262] ?
Result: 3.59

Problem: What measured pKd goes with SVTSERETNI [SLC16A7, O60669] ?
Result: 3.67

Problem: What measured pKd goes with KRPEMTSSSV [MUC3B, MUC3A, Q02505;Q9H195] ?
Result: 4

Problem: What measured pKd goes with AEASVACSLC [PTGIR, P43119] ?
Result: 3.53
